Ref: the kinase profiling compilation of Christmann-Franck et al. (2016)

Molecular target: CSNK1G1 (human) (UniProt Q9HCP0)
Sequence (Q9HCP0 whole entry, looked up): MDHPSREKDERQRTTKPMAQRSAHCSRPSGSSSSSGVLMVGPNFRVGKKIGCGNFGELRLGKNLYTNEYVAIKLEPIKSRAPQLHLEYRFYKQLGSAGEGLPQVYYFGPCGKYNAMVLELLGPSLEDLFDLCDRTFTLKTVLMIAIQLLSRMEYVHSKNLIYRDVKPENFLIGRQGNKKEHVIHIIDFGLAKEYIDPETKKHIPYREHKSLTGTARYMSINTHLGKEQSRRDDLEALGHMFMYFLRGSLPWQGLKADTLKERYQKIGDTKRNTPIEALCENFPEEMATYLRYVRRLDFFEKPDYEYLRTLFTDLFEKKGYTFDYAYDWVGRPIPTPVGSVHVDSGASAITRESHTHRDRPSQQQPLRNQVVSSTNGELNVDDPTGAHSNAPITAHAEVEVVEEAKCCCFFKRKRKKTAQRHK
Assay: radiometric filter-binding kinase assay, Kinase HotSpot
Conditions: compound 0.5 µM; ATP 10 µM
This section presents compounds with their documented residual activity values.
VALUE_KIND: residual activity (%)

| STRUCTURE_STRING | VALUE_KIND | NUMBER |
| --- | --- | --- |
| O=C1NC(=O)c2c1c1c3ccccc3n3c1c1c2c2ccccc2n1C1CCC3O1 | residual activity | 96.1 |
| CCC(=O)Nc1ccc2ncnc(Nc3cccc(Br)c3)c2c1 | residual activity | 98.6 |
| CCCC(=O)Oc1ccc2[nH]c(C(=O)c3cc4ccccc4[nH]3)cc2c1 | residual activity | 76.1 |
| CC[n+]1c(/C=C/N(C)c2ccccc2)n(-c2ccccc2)c2ccc(-c3nc4ccccc4s3)cc21 | residual activity | 104 |
| COc1ccc2c(c[n+](C)c3c4cc5c(cc4ccc23)OCO5)c1OC | residual activity | 106 |

---

Target: STK11 (human)
Assay: radiometric filter-binding kinase assay, Kinase HotSpot
Conditions: compound 0.5 µM; ATP 10 µM
VALUE_KIND: residual activity

| STRUCTURE_STRING | RESULT |
| --- | --- |
| Cc1ccc(Nc2nccc(N(C)c3ccc4c(C)n(C)nc4c3)n2)cc1S(N)(=O)=O | 92.1% |
| Cc1[nH]c(/C=C2\C(=O)Nc3ccc(S(=O)(=O)N(C)c4cccc(Cl)c4)cc32)c(C)c1C(=O)N1CCN(C)CC1 | 89.9% |
| O=C1NC(=O)C(c2cn(CCCn3ccnc3)c3ccccc23)=C1Nc1ccccc1 | 89.9% |

---

Target: MERTK (human) (UniProt Q12866)
Sequence (Q12866 whole entry, looked up): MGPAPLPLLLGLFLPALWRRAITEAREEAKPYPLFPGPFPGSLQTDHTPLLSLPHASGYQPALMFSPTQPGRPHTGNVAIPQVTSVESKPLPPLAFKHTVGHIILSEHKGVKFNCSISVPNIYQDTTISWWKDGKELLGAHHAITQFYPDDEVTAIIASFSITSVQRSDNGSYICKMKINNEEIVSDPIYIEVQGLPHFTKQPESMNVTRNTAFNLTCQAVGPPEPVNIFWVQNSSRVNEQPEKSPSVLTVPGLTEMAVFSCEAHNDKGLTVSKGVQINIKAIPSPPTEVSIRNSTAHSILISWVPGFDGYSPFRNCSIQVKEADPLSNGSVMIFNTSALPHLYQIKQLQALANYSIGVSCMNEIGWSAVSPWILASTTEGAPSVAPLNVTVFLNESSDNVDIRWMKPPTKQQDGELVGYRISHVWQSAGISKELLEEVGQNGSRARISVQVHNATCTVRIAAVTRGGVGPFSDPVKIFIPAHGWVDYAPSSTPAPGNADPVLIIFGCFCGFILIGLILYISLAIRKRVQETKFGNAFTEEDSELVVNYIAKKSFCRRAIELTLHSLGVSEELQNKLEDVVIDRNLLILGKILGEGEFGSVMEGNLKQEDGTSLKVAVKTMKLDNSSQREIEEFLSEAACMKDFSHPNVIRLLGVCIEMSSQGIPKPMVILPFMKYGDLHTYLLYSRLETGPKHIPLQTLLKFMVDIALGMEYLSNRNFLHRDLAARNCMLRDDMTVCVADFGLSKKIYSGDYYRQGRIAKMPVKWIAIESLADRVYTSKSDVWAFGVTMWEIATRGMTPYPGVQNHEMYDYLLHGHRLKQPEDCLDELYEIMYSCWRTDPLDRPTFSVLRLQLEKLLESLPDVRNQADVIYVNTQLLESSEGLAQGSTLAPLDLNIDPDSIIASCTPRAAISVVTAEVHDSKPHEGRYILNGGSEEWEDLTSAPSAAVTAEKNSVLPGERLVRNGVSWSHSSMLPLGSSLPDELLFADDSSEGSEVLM
Assay: radiometric filter-binding kinase assay, Kinase HotSpot
Details: compound 0.5 µM; ATP 10 µM

| STRUCTURE_STRING | residual activity (%) |
| --- | --- |
| c1ccc(-c2n[nH]c3c2oc2ccccc23)cc1 | 80 |
| CC(C)N(CCC(=O)c1ccc2ccccc2c1)Cc1ccccc1 | 106 |
| CNc1cc2c(Nc3cccc(Br)c3)ncnc2cn1 | 87.5 |
| COc1ccc(COc2ccc(Cc3cnc(N)nc3N)cc2OC)cc1 | 90.3 |
| CCN(CC)CCNC(=O)c1c(C)[nH]c(/C=C2\C(=O)Nc3ccc(F)cc32)c1C | 39.8 |
| CCC(=O)Nc1ccc2ncnc(Nc3cccc(Br)c3)c2c1 | 83.9 |
| O=S(=O)(c1cccc2cnccc12)N1CCCNCC1 | 88.3 |
| CC(=O)c1ccc(N2CCOCC2)cc1O | 101 |
| Cc1ccc(NC2=CC(=O)c3sc(C)nc3C2=O)cc1 | 80.5 |
| O=c1cc(N2CCOCC2)oc2c1ccc1ccccc12 | 96.4 |
| Cc1ccc(Nc2nccc(N(C)c3ccc4c(C)n(C)nc4c3)n2)cc1S(N)(=O)=O | 57.2 |
| Cc1[nH]c(/C=C2\C(=O)Nc3ccc(S(=O)(=O)N(C)c4cccc(Cl)c4)cc32)c(C)c1C(=O)N1CCN(C)CC1 | 21.4 |
| Oc1cccc(-c2nc(N3CCOCC3)c3oc4ncccc4c3n2)c1 | 87.8 |
| Cc1ccc(S(=O)(=O)/C=C/C#N)cc1 | 96.4 |
| N#C/C(=C(/N)Sc1ccc(N)cc1)c1ccccc1C(F)(F)F | 80.7 |
| CCN(CC)C(=O)c1ccc(Nc2nc(OCC3CCCCC3)c3nc[nH]c3n2)cc1 | 71.6 |
| O=C1Nc2ccc(Cl)cc2/C1=C/c1cc(Cl)c(O)c(Cl)c1 | 88.4 |
| O=C1NC(=O)C(c2cn(CCCn3ccnc3)c3ccccc23)=C1Nc1ccccc1 | 86.1 |
| O=C1NC(=O)c2c1c1c3ccccc3n3c1c1c2c2ccccc2n1C1CCC3O1 | 13.6 |
| CCOC(=O)c1c(C)[nH]c(/C=C2\C(=O)Nc3ccccc32)c1C | 69.3 |
| CC[n+]1c(/C=C/N(C)c2ccccc2)n(-c2ccccc2)c2ccc(-c3nc4ccccc4s3)cc21 | 96.5 |
